Quick reference for selectivity ratio among some compounds
assay: Selectivity index, ratio of IC50 for rat L6 cells to IC50 for Plasmodium falciparum K1 by [3H] hypoxanthine uptake inhibition assay; format: toxicity, cell-based; conditions: rat L6 cells versus Plasmodium falciparum K1, read-out: Ratio IC50
value.type: selectivity ratio

1) CN(CCO)CCCNc1ccnc2cc(Cl)ccc12 ... 63
2) COc1cc(NC(C)CCCNC(c2cccc(CO[C@@H]3COc4nc([N+](=O)[O-])cn4C3)c2)c2nnnn2C(C)(C)C)c2ncccc2c1 (stereo partly specified) ... 145
3) CN(C)C(c1ccc(CO[C@@H]2COc3nc([N+](=O)[O-])cn3C2)cc1)c1nnnn1C(C)(C)C (stereo partly specified) ... 11.2
4) CCN(CC)C(c1ccc(CO[C@@H]2COc3nc([N+](=O)[O-])cn3C2)cc1)c1nnnn1C(C)(C)C (stereo partly specified) ... 14.2
5) CC(C)(C)n1nnnc1C(NCCNc1ccnc2cc(Cl)ccc12)c1ccc(CO[C@@H]2COc3nc([N+](=O)[O-])cn3C2)cc1 (stereo partly specified) ... 246
6) OCCCNc1ccnc2cc(Cl)ccc12 ... 164
